# assay.context: buffer; pH 7.4; 200.0 µM
value.type: log10 solubility kinetic (log10 of the value in µg/mL)
Response schema: value (number) is log10 of solubility kinetic in units of µg/mL.

# count of solved cases: 3
CCOC(=O)C1CCN(C(=O)COC(=O)c2c(C)c(CC)nc3ccccc23)CC1 | 1.31
O=C(Nc1ccc(Cl)cc1)c1ccc2ncsc2c1 | 0.49
COc1ccc(S(=O)(=O)N2CCCC2)c2ccccc12 | -0.05

Recorded log10 solubility kinetic of CC1CN(C(=S)Nc2ccccc2)CC(C)O1 (stereo unspecified) , please.
1.55

Proceed to Cc1nc(SCC(=O)N2CCOCC2)c2c3c(sc2n1)CCC3
1.52

====

# assay.context: buffer; pH 7.4; 200.0 µM
solubility kinetic values for the compounds below.

O=C(COC(=O)c1ccco1)NCCc1ccc(Cl)cc1 | > 46.2 µg/mL
CNC(=S)N1CCn2cccc2C1c1cc(OC)c(OC)c(OC)c1 (configuration not stated) | > 54.2 µg/mL
CCOc1ccc(C(=O)NCC2CCN(CC3CCCCC3)CC2)cc1 | > 53.8 µg/mL
O=[N+]([O-])c1ccc(N2CCNCC2)cc1N1CCCCC1 | > 43.6 µg/mL
O=C(Nc1ccc(S(=O)(=O)N2CCCCC2)cc1)C1CC1 | > 46.3 µg/mL

Data request, read-out solubility kinetic, for O=C(NCc1ccccc1F)C1CCCN1C(=O)Nc1cccc(F)c1 (configuration not stated)
> 53.9 µg/mL

Now give it for COc1cc([N+](=O)[O-])ccc1NC(=O)/C=C/C(=O)O too.
> 39.9 µg/mL

Next: Cl.c1ccc2c(c1)CN1CCCC1=N2
> 31.3 µg/mL

Same read-out for CCn1c(CCC(=O)O)nc2cc(S(=O)(=O)N3CCOCC3)ccc21 ?
> 55.1 µg/mL

Then what about the compound COc1ccc(CC(=O)NC2CC(C)(C)NC(C)(C)C2)cc1OC.Cl ?
> 55.6 µg/mL

Queued: CCC(=O)c1ccc(OCC(=O)NC2CCCC2)cc1
> 41.3 µg/mL

Another compound to look at: CCOC(=O)c1nc2c(ccc3ccccc32)cc1C
< 0.6 µg/mL

====

# assay.context: buffer; pH 7.4; 200.0 µM
value.type: solubility kinetic

N#C/C(=C\c1cccnc1)C(=O)Nc1ccc(O)cc1F | > 42.5 µg/mL

If you can, please state the reported solubility kinetic value of CC1CC(C)CN(C(=O)COC(=O)c2cc3ccccc3oc2=O)C1 (stereo unspecified) .
> 51.5 µg/mL

Same question, CC(C)(C)C(=O)Nc1ccc(S(=O)(=O)N2CCCC2)cc1 this time
> 46.6 µg/mL

====

# assay.context: buffer; pH 7.4; 200.0 µM
Known solubility kinetic of a selection of compounds

Worked cases, solubility kinetic given:
O=C(CCS(=O)(=O)c1ccc(Cl)cc1)NC1CCCC1 | > 47.4 µg/mL
N#Cc1ccc(NC(=O)CN2CCCC2)cc1Cl | > 39.6 µg/mL
CC(=O)Nc1ccc(-c2nc3cc(Cl)ccc3o2)cc1 | < 0.3 µg/mL
O=C(O)/C=C/C(=O)Nc1ccc(OCc2ccccc2)cc1 | > 44.6 µg/mL
O=C(COC(=O)c1ccc([N+](=O)[O-])o1)NCc1ccccc1 | > 45.6 µg/mL

Would you mind telling me what solubility kinetic value was observed for CCOC(=O)N1CCN(C(=O)COC(=O)c2cc(C)ccc2C)CC1 ?
> 52.3 µg/mL

Request: Cc1ccc(NC(=O)c2ccc(C(=O)c3ccccc3)cc2)nc1
5.1 µg/mL

Please do the same for CN(CCOc1ccc(Cl)cc1)C(=O)C1=CC=CN2CCS(=O)(=O)N=C12 as well.
> 59.4 µg/mL

Request: Cc1cc(C)cc(NC(=S)Nc2cccc3ccccc23)c1
1.1 µg/mL

Cool, now CSc1nc2ccc(NC(=O)c3cccs3)cc2s1
2.7 µg/mL

Do the same for CC(NC(=O)c1ccco1)C(=O)OCc1cccc(C(F)(F)F)c1 (centres undefined) please
> 51.2 µg/mL

Can you check O=C(Cc1ccc(F)cc1)Nc1nc(-c2ccc(F)cc2)cs1 next?
< 0.4 µg/mL

Query CCN(C(=O)CSc1nc(C)c(C)c(C)n1)C1CCS(=O)(=O)C1 (centres undefined) next
> 53.6 µg/mL

And then CC(=O)Oc1ccc2c(=O)oc(-c3ccccc3C)nc2c1 , what is it?
8.4 µg/mL

Field entry: CN(CC(=O)Nc1ccc(Cl)cc1)C(=O)Cc1c(F)cccc1Cl
14.6 µg/mL

Similarly, COc1ccc(C(=O)Nc2ccc3c(c2)OCCO3)cc1[N+](=O)[O-] ?
< 0.4 µg/mL

Entry to check: COc1ccc(C(C)NC(=O)Cc2cccs2)cc1 (centres undefined)
37.1 µg/mL

Same question for CC(=O)NCCc1nc2ccccc2n1CCOc1ccccc1 please.
> 48.5 µg/mL

Same again, this time with CCCCN1CC(O)=C(c2nc(-c3ccc(Br)cc3)cs2)C1=N
< 0.3 µg/mL

====

# assay.context: buffer; pH 7.4; 200.0 µM
value.type: solubility kinetic

CN1CCN(c2nc(-c3ccccc3Cl)nc3ccccc23)CC1 | > 50.8 µg/mL

Query (molecule): CCN(CC)C(=N)/C(C#N)=N/Nc1ccccc1 ; field requested: solubility kinetic
> 36.5 µg/mL

Clc1cnc2nc(SC/C=C/c3ccccc3)[nH]c2c1 ?
< 0.2 µg/mL

Cool, now Cc1nn(-c2ccc(F)cc2)c(C)c1/C=C/C(=O)N1CCNC(=O)C1
> 51.4 µg/mL

Moving on to CN(C(=S)NC(=O)C1CC1)c1ccc(O)cc1
> 37.5 µg/mL

For CN1CCN(NC(=O)NC2CCCCC2)CC1 then?
> 36.1 µg/mL

Now give it for COc1ccc2c(ccc[n+]2CC(=O)c2ccccc2)c1.[Br-] too.
> 53.7 µg/mL

Now the same for COCCCn1c(=O)cc(C)[nH]c1=S
> 32.1 µg/mL

Next molecule up: O=C(O)[C@H](Cc1ccccc1)Nc1ccc([N+](=O)[O-])cn1
> 43.1 µg/mL

====

# assay.context: buffer; pH 7.4; 200.0 µM
value.type: solubility kinetic

For orientation, consider the following solved cases.
Cl.O=[N+]([O-])c1ccccc1OCCCN1CCc2ccccc2C1 | > 52.3 µg/mL
O=C(Nc1ccsc1C(=O)N1CCCC1)c1ccccc1 | < 0.3 µg/mL
O=C(Nc1cc2c(cc1Br)OCCCO2)c1cccnc1 | > 52.4 µg/mL

Any idea what its solubility kinetic is? The compound is CCOc1ccc(NC(=O)CN(C)S(=O)(=O)c2cnc[nH]2)cc1
> 50.8 µg/mL

Can you check COc1ccc([N+](=O)[O-])cc1NS(=O)(=O)c1cccc(C(=O)NCCCN2CCCC2=O)c1 next?
> 71.5 µg/mL

Field entry: CCCOC(=O)C1=C(C)NC(=O)NC1c1cccc2ccccc12 (centres undefined)
< 0.3 µg/mL

Please do the same for Cc1ccccc1NC(=S)NCc1ccc(F)cc1 as well.
> 41.2 µg/mL

Entry to check: COc1ccc(NC(C)=O)cc1NC(=O)c1ccc(C#N)cc1
> 46.4 µg/mL

Entry CC(OC(=O)Cn1ccccc1=O)C(=O)Nc1cc(Cl)cc(Cl)c1 (centres undefined) please
> 55.4 µg/mL

====

In this section, each of the compounds is paired with its reported solubility kinetic.
# assay.context: buffer; pH 7.4; 200.0 µM

Worked cases, answers included:
O=C(NCCCn1ccnc1)c1ccc(-c2ccccc2)cc1 | > 45.8 µg/mL
COc1ccc(CNC(=O)COC(=O)C(CCSC)N2C(=O)c3ccccc3C2=O)cc1 (stereo unspecified) | > 68.5 µg/mL
COc1ccc(Oc2ccc(C(F)(F)F)cc2NC(=O)c2ccc(F)cc2)cc1 | < 0.9 µg/mL
COc1cc(CNC(C)(C)C)ccc1OCC(=O)NC(C)(C)C | > 48.4 µg/mL
O=C1CN(C(=S)Nc2ccccc2Cl)CCN1 | > 40.5 µg/mL

Suppose we examine the compound Cc1ccc(OCC(=O)Nc2ccc3oc(=O)ccc3c2)cc1C ; what solubility kinetic value has been reported?
< 0.7 µg/mL

====

# assay.context: buffer; pH 7.4; 200.0 µM
value.type: solubility kinetic (µg/mL)
Use µg/mL as the unit, but write only the number.

// solved cases for solubility kinetic follow
COc1ccc(NC(=O)COC(=O)Cc2coc3cc(OC)ccc23)c(OC)c1 | 11.8
O=C(NC1CCC(c2ccccc2)CC1)c1cccnc1 (stereo not given) | 4.3
COc1ccc(C2(C)NC(=O)N(CC(=O)NC3CC3)C2=O)cc1 (stereo not given) | 43.3
CCOc1ccc(NC(=O)CNC(=O)Cc2ccccc2)cc1 | 4.4

Param item = CCc1sc(C(=O)Nc2nc(-c3ccccn3)cs2)cc1C ; retrieve measured solubility kinetic.
2.9

// repeat for Cc1cc(C)c2nc(NC(=O)c3ccco3)sc2c1 and report
0.4
